System: Becker (Low Grade Glioma);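 note: after 72 h of two-drug dosing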
Assay: Bliss excess, mean over the matrix (fraction); higher = more synergy
endpoint name: Bliss excess

| molecule | Bliss excess |
| --- | --- |
| Cc1c2c(nn1C)CSCc1cc(n(C)n1)CSc1cc(c3ccccc3c1)OCCCc1c(C(=O)O)n(C)c3c-2c(Cl)ccc13 [AZD5991] + Cn1cnc2c(F)c(Nc3ccc(Br)cc3Cl)c(C(=O)NOCCO)cc21 [Selumetinib] (first compound max 1 µM, 7x7, partner max 3 µM) | -0.0092 |
| N#Cc1cnc(Nc2cc(NC[C@H]3CNCCO3)c(C(F)(F)F)cn2)cn1 [SRA737] + Nc1ccn([C@@H]2O[C@H](CO)[C@@H](O)C2(F)F)c(=O)n1 [Gemcitabine] (first compound max 10 µM, 7x7, partner max 0.3 µM) | 0.0323 |
| Cc1c2c(nn1C)CSCc1cc(n(C)n1)CSc1cc(c3ccccc3c1)OCCCc1c(C(=O)O)n(C)c3c-2c(Cl)ccc13 [AZD5991] + CC1(C)CCC(CN2CCN(c3ccc(C(=O)NS(=O)(=O)c4ccc(NCC5CCOCC5)c([N+](=O)[O-])c4)c(Oc4cnc5[nH]ccc5c4)c3)CC2)=C(c2ccc(Cl)cc2)C1 [Venetoclax] (first compound max 1 µM, 7x7, partner max 1 µM) | -0.0033 |
| CC1(C)CCC(CN2CCN(c3ccc(C(=O)NS(=O)(=O)c4ccc(NCC5CCOCC5)c([N+](=O)[O-])c4)c(Oc4cnc5[nH]ccc5c4)c3)CC2)=C(c2ccc(Cl)cc2)C1 [Venetoclax] + CCN(CCO)CCCOc1ccc2c(Nc3cc(CC(=O)Nc4cccc(F)c4)[nH]n3)ncnc2c1 [AZD2811] (first compound max 1 µM, 7x7, partner max 1 µM) | 0.0074 |

Exercise: Name the recorded Bliss excess for COc1nnc2ccc(N3CCC(c4ccc(OCCN5CCN(C)C(=O)[C@H]5C)cc4)CC3)nn12 [AZD5153] + Cc1c2c(nn1C)CSCc1cc(n(C)n1)CSc1cc(c3ccccc3c1)OCCCc1c(C(=O)O)n(C)c3c-2c(Cl)ccc13 [AZD5991] (first compound max 1 µM, 7x7, partner max 1 µM) .
Key: -0.0815

Exercise: // query: C=CCn1c(=O)c2cnc(Nc3ccc(N4CCN(C)CC4)cc3)nc2n1-c1cccc(C(C)(C)O)n1 [AZD1775] + O=C(c1cc(Cc2n[nH]c(=O)c3ccccc23)ccc1F)N1CCN(C(=O)C2CC2)CC1 [Olaparib] (first compound max 1 µM, partner max 10 µM)
Key: -0.0254

Exercise: Same for COc1nnc2ccc(N3CCC(c4ccc(OCCN5CCN(C)C(=O)[C@H]5C)cc4)CC3)nn12 [AZD5153] + CC1(C)CCC(CN2CCN(c3ccc(C(=O)NS(=O)(=O)c4ccc(NCC5CCOCC5)c([N+](=O)[O-])c4)c(Oc4cnc5[nH]ccc5c4)c3)CC2)=C(c2ccc(Cl)cc2)C1 [Venetoclax] (first compound max 1 µM, 7x7, partner max 1 µM)
Key: -0.0487
